Observed IC50 for HCV polymerase 1B (Δ21 NS5B) (Hepatitis C virus genotype 1b, UniProt P26663), reported per entry below.
MEASUREMENT KIND: IC50

INSERT INTO results (compound_smiles, measurement_kind, value) VALUES
  ('COc1c(Br)cc(-c2c[nH]c(=O)[nH]c2=O)cc1C(C)(C)C', 'IC50', '> 1000 nM'),
  ('COc1c(-c2ccc3cc(NS(C)(=O)=O)ccc3c2)cc(-c2c[nH]c(=O)[nH]c2=O)cc1C(F)(F)C(F)(F)F', 'IC50', '10 to 100 nM'),
  ('COc1c(-c2ccc3cc(NS(C)(=O)=O)ccc3c2)cc(-c2c[nH]c(=O)[nH]c2=O)cc1-c1cccs1', 'IC50', '< 10 nM'),
  ('CC(C)(C)c1cc(-c2c[nH]c(=O)[nH]c2=O)cc(-c2ccc3cc(NS(C)(=O)=O)ccc3c2)c1I', 'IC50', '10 to 100 nM'),
  ('COc1c(-c2c[nH]c(=O)[nH]c2=O)cc(-c2ccc3cc(NS(C)(=O)=O)ccc3c2)cc1C(C)(C)C', 'IC50', '100 to 1000 nM'),
  ('COc1c(-c2ccc3c(c2)CC=C3CNS(C)(=O)=O)cc(-c2cn(S(C)(=O)=O)c(=O)[nH]c2=O)cc1C(F)(F)F', 'IC50', '10 to 100 nM'),
  ('COc1c(-c2ccc3c(c2)CCC3=O)cc(-c2c[nH]c(=O)[nH]c2=O)cc1C(C)(C)C', 'IC50', '10 to 100 nM');

====

As an illustration, consider measured pIC50 for compounds on HCV polymerase 1B (Δ21 NS5B) (Hepatitis C virus genotype 1b, UniProt P26663).
Sequence (P26663 2420-2989, stated change not applied): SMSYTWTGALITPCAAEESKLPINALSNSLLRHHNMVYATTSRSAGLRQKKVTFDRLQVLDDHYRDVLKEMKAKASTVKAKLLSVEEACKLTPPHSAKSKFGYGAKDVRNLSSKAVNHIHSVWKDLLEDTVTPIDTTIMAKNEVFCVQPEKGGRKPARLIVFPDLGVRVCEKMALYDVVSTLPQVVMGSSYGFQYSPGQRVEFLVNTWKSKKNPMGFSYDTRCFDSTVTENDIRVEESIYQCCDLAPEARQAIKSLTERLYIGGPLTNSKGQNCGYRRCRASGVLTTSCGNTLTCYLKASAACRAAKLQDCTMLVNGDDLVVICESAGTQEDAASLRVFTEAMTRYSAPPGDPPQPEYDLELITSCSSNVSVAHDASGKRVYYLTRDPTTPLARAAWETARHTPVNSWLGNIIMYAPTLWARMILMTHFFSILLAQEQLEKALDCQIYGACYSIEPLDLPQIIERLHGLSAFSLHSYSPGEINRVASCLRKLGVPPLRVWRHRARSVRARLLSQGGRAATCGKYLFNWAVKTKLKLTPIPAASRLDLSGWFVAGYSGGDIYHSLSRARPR
pIC50: −log10 of the molar value.
MEASUREMENT KIND: pIC50

INSERT INTO assay_data (compound, value) VALUES
  ('COc1c(-c2ccc3c(c2)CC=C3CNS(C)(=O)=O)cc(-c2c[nH]c(=O)[nH]c2=O)cc1-c1ccc(C)o1 [compound 44]', '7.00 to 8.00'),
  ('COc1c(-c2ccc3cc(NS(C)(=O)=O)ccc3c2)cc(-c2c[nH]c(=O)[nH]c2=O)cc1C(F)(F)F [compound 49]', '7.00 to 8.00'),
  ('COc1c(-c2ccc3cc(NS(C)(=O)=O)ccc3c2)cc(-c2c[nH]c(=O)[nH]c2=O)cc1-c1cnn(C)c1 [compound 41]', '6.00 to 7.00'),
  ('CCNC(=O)Nc1cc(-c2ccc3cc(NS(C)(=O)=O)ccc3c2)c(OC)c(C(C)(C)C)c1 [compound 22]', '6.00 to 7.00'),
  ('COc1c(-c2ccc3c(c2)CC=C3CNS(C)(=O)=O)cc(-c2cn(C)c(=O)[nH]c2=O)cc1C(C)(C)C [compound 6]', '7.00 to 8.00'),
  ('COc1c(-c2ccc3cc(NS(C)(=O)=O)ccc3c2)cc(-c2c[nH]c(=O)[nH]c2=O)cc1-c1ccco1 [compound 40]', '> 8.00'),
  ('COc1c(-c2ccc3cc(NS(C)(=O)=O)ccc3c2)cc(N2CCCNC2=O)cc1C(C)(C)C [compound 26]', '7.00 to 8.00');

====

Quick list: EC50 per entry.
system: genotype 1a-H77 subgenomic replicon cell line; test: HCV Polymerase Replicon Assay (genotype 1a-H77, luciferase reporter); type: cell-based; details: Hepatitis C virus, 72 h, 1a-H77 replicon, three days
MEASUREMENT KIND: EC50

INSERT INTO measurements (compound, value) VALUES
  ('COc1c(-c2ccc3cc(NS(C)(=O)=O)ccc3c2)cc(-c2cn(C)c(=O)[nH]c2=O)cc1C(C)(C)C', '10 to 100 nM'),
  ('COc1c(-c2ccc3c(c2)CCC3O)cc(-c2c[nH]c(=O)[nH]c2=O)cc1C(C)(C)C (centres unmarked)', '> 1000 nM'),
  ('COc1c(-c2ccoc2)cc(-c2c[nH]c(=O)[nH]c2=O)cc1-c1ccc2cc(NS(C)(=O)=O)ccc2c1', '100 to 1000 nM'),
  ('COc1c(-c2ccc3cc(NS(C)(=O)=O)ccc3c2)cc(-c2ccc(=O)[nH]c2)cc1C(C)(C)C', '100 to 1000 nM'),
  ('COc1c(-c2ccc3cc(NS(C)(=O)=O)ccc3c2)cc(-c2c[nH]c(=O)[nH]c2=O)cc1-c1ccc(C)o1', '10 to 100 nM'),
  ('COc1c(-c2ccc3c(c2)CC=C3CNS(C)(=O)=O)cc(-c2c[nH]c(=O)[nH]c2=O)cc1C(C)(C)C', '≤ 10 nM'),
  ('COc1c(-c2ccc3cc(NS(C)(=O)=O)ccc3c2)cc(NC(=O)CCNC(=O)OC(C)(C)C)cc1C(C)(C)C', '> 1000 nM'),
  ('COc1c(-c2ccc3cc(NS(C)(=O)=O)ccc3c2)cc(-c2c[nH]c(=O)[nH]c2=O)cc1C(F)(F)C(F)(F)F', '100 to 1000 nM'),
  ('COc1c(-c2ccc3cc(NS(C)(=O)=O)ccc3c2)cc(-c2cn(C)c(=O)n(C)c2=O)cc1C(C)(C)C', '100 to 1000 nM'),
  ('COc1c(-c2ccc3cc(NS(C)(=O)=O)ccc3c2)cc(-n2ccccc2=O)cc1C(C)(C)C', '100 to 1000 nM'),
  ('COc1c(-c2ccc3cc(NS(C)(=O)=O)ccc3c2)cc(NC(C)=O)cc1C(C)(C)C', '> 1000 nM'),
  ('COc1c(-c2ccc3c(c2)CC=C3CNS(C)(=O)=O)cc(-c2cn(S(C)(=O)=O)c(=O)[nH]c2=O)cc1C(F)(F)F', '100 to 1000 nM'),
  ('COc1c(-c2ccc3cc(NS(C)(=O)=O)ccc3c2)cc(-c2c[nH]c(=O)[nH]c2=O)cc1-c1cnn(C)c1', '> 1000 nM'),
  ('COc1c(-c2ccc3cc(NS(C)(=O)=O)ccc3c2)cc(-c2c[nH]c(=O)[nH]c2=O)cc1-c1ccco1', '100 to 1000 nM'),
  ('CCOC(=O)CCNC(=O)Nc1cc(-c2ccc3cc(NS(C)(=O)=O)ccc3c2)c(OC)c(C(C)(C)C)c1', '100 to 1000 nM'),
  ('COc1c(-c2ccc3cc(NS(C)(=O)=O)ccc3c2)cc(NC(N)=O)cc1C(C)(C)C', '100 to 1000 nM'),
  ('C=Cc1c(-c2ccc3cc(NS(C)(=O)=O)ccc3c2)cc(-c2c[nH]c(=O)[nH]c2=O)cc1C(C)(C)C', '10 to 100 nM');

====

IC50: recorded values
target: UniProt:P27958
Sequence (P27958 2421-2990, stated change not applied): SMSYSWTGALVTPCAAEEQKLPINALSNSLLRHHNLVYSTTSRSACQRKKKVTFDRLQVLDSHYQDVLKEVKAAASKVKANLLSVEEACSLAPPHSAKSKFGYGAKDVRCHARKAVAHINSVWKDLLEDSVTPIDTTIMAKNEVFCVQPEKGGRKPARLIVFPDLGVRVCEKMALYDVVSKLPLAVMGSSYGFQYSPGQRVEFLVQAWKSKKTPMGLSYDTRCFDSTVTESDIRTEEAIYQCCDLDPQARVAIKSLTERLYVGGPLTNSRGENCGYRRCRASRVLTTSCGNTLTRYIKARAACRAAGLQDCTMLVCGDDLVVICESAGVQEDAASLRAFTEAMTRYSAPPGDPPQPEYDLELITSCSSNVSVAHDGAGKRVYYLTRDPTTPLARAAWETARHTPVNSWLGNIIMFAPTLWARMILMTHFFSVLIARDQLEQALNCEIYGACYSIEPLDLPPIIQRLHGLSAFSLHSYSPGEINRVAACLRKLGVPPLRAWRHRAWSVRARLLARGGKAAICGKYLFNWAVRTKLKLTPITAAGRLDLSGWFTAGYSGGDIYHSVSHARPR
MEASUREMENT KIND: IC50

INSERT INTO assay_data (molecule, measurement_kind, value) VALUES
  ('COc1c(-c2ccc3cc(NS(C)(=O)=O)ccc3c2)cc(NC(C)=O)cc1C(C)(C)C [compound 47]', 'IC50', '100 to 1000 nM'),
  ('COc1c(-c2ccsc2)cc(-c2c[nH]c(=O)[nH]c2=O)cc1-c1ccc2cc(NS(C)(=O)=O)ccc2c1 [compound 43]', 'IC50', '< 10 nM'),
  ('COc1c(-c2ccc3cc(NS(C)(=O)=O)ccc3c2)cc(NC(=O)NC(C)C)cc1C(C)(C)C [compound 18]', 'IC50', '> 1000 nM'),
  ('COc1c(-c2ccc3cc(NS(C)(=O)=O)ccc3c2)cc(NC(=O)CCNC(=O)OC(C)(C)C)cc1C(C)(C)C [compound 23]', 'IC50', '100 to 1000 nM');

====

Observed IC50 values for UniProtKB P27958 are listed in what follows.
MEASUREMENT KIND: IC50

INSERT INTO results (compound_smiles, measurement_kind, value) VALUES
  ('COc1c(-c2ccc3cc(NS(C)(=O)=O)ccc3c2)cc(-c2c[nH]c(=O)[nH]c2=O)cc1C(C)(C)C', 'IC50', '< 10 nM'),
  ('COc1c(-c2ccc3c(c2)CC=C3CNS(C)(=O)=O)cc(-c2c[nH]c(=O)[nH]c2=O)cc1C(C)(C)C', 'IC50', '< 10 nM'),
  ('COc1c(-c2ccc3cc(NS(C)(=O)=O)ccc3c2)cc(-n2ccccc2=O)cc1C(C)(C)C', 'IC50', '10 to 100 nM'),
  ('COc1c(-c2ccc3cc(NS(C)(=O)=O)ccc3c2)cc(-c2c[nH]c(=O)[nH]c2=O)cc1C(F)(F)C(F)(F)F', 'IC50', '< 10 nM'),
  ('COc1c(-c2ccc3c(CNS(C)(=O)=O)csc3c2)cc(-c2c[nH]c(=O)[nH]c2=O)cc1C(F)(F)F', 'IC50', '< 10 nM'),
  ('COc1c(-c2ccc3cc(NS(C)(=O)=O)ccc3c2)cc(-c2ccc(=O)[nH]c2)cc1C(C)(C)C', 'IC50', '100 to 1000 nM'),
  ('COc1c(-c2ccc3cc(NS(C)(=O)=O)ccc3c2)cc(C(=O)c2ccccc2)cc1C(C)(C)C', 'IC50', '> 1000 nM'),
  ('COc1c(-c2ccc3cc(NS(C)(=O)=O)ccc3c2)cc(N2CCNC2=O)cc1C(C)(C)C', 'IC50', '10 to 100 nM'),
  ('COc1c(/C=C/c2ccc(NS(C)(=O)=O)cc2)cc(-c2c[nH]c(=O)[nH]c2=O)cc1C(F)(F)F', 'IC50', '10 to 100 nM'),
  ('COc1c(-c2ccoc2)cc(-c2c[nH]c(=O)[nH]c2=O)cc1-c1ccc2cc(NS(C)(=O)=O)ccc2c1', 'IC50', '< 10 nM'),
  ('COc1c(-c2ccc3cc(NS(C)(=O)=O)ccc3c2)cc(NC(N)=O)cc1C(C)(C)C', 'IC50', '< 10 nM'),
  ('COc1c(-c2ccc3c(c2)CC=C3CNS(C)(=O)=O)cc(-c2cn(C)c(=O)[nH]c2=O)cc1C(C)(C)C', 'IC50', '< 10 nM'),
  ('COc1c(-c2ccc3c(c2)CC=C3CNS(C)(=O)=O)cc(-c2cn(S(C)(=O)=O)c(=O)[nH]c2=O)cc1C(F)(F)F', 'IC50', '10 to 100 nM'),
  ('COc1c(-c2ccc3cc(NS(C)(=O)=O)ccc3c2)cc(-c2c[nH]c(=O)[nH]c2=O)cc1-c1ccc(C)o1', 'IC50', '< 10 nM');
